# Target Desc: Y5R (Homo sapiens)
# Sequence (Q15761 whole entry): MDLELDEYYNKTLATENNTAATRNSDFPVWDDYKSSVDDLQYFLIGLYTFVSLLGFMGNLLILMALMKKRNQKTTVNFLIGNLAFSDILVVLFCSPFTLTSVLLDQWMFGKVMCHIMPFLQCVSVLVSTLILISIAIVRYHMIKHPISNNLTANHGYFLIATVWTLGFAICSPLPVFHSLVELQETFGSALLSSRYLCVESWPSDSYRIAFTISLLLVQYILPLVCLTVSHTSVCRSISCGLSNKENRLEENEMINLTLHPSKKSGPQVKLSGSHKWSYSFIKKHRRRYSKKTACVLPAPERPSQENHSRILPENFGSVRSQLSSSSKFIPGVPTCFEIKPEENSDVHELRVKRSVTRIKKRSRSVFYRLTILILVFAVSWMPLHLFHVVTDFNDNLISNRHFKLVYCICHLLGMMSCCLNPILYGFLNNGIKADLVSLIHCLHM
# Measurement Description: Ca flux assay (FLIPR), Y5R
Reported Property: EC50 (nM)
Kindly provide the numeric value in nM only, without the unit symbol.

q: Recall the reported EC50 of "CC[C@H](C)[C@H](NC(C)=O)C(=O)N[C@@H](CCCCN)C(=O)N1CCN(c2ccc3ccn(CC(=O)N[C@@H](CCCNC(=N)N)C(=O)N[C@@H](Cc4c[nH]cn4)C(=O)N[C@@H](Cc4ccc(O)cc4)C(=O)N[C@@H](CC(C)C)C(=O)N[C@@H](CC(N)=O)C(=O)N[C@@H](Cc4c[nH]c5ccccc45)C(=O)N[C@H](C(=O)N[C@H](C(=O)N[C@@H](CCCNC(=N)N)C(=O)N[C@@H](CCC(N)=O)C(=O)N(C)[C@@H](CCCNC(=N)N)C(=O)N[C@@H](Cc4ccc(O)cc4)C(N)=O)[C@@H](C)O)C(C)C)c(=O)c3c2)CC1" on Y5R (Homo sapiens) and write it down.
a: 2340

---

# Target Desc: UniProt:P50391
# Sequence (P50391 whole entry): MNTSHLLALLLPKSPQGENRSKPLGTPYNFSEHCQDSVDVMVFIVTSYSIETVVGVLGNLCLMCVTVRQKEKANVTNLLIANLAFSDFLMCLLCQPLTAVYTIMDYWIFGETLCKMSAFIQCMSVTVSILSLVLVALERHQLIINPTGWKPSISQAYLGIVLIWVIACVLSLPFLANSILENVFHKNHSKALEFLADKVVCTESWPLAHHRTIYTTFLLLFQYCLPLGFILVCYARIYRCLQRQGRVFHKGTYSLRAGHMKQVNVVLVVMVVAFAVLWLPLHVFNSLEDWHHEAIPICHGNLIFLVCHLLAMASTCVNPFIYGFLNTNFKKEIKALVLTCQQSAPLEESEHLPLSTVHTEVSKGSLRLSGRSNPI
# Measurement Description: Ca flux assay (FLIPR), Y4R
Reported Property: EC50

q: Recall and state the measured EC50 for "CC[C@H](C)[C@H](NC(C)=O)C(=O)N[C@@H](CCCCN)C(=O)N1CCN(c2nc(N)c3c(ncn3CC(=O)N[C@@H](CCCNC(=N)N)C(=O)N[C@@H](Cc3c[nH]cn3)C(=O)N[C@@H](Cc3ccc(O)cc3)C(=O)N[C@@H](CC(C)C)C(=O)N[C@@H](CC(N)=O)C(=O)N[C@@H](Cc3c[nH]c4ccccc34)C(=O)N[C@H](C(=O)N[C@H](C(=O)N[C@@H](CCCNC(=N)N)C(=O)N[C@@H](CCC(N)=O)C(=O)N(C)[C@@H](CCCNC(=N)N)C(=O)N[C@@H](Cc3ccc(O)cc3)C(N)=O)[C@@H](C)O)C(C)C)n2)CC1" .
a: > 5 µM

q: Recall and state the measured EC50 for "CC[C@H](C)[C@H](NC(C)=O)C(=O)N[C@@H](CCCCN)C(=O)N1CCN(c2ccc3c(ccn3CC(=O)N[C@@H](CCCNC(=N)N)C(=O)N[C@@H](Cc3c[nH]cn3)C(=O)N[C@@H](Cc3ccc(O)cc3)C(=O)N[C@@H](CC(C)C)C(=O)N[C@@H](CC(N)=O)C(=O)N[C@@H](Cc3c[nH]c4ccccc34)C(=O)N[C@H](C(=O)N[C@H](C(=O)N[C@@H](CCCNC(=N)N)C(=O)N[C@@H](CCC(N)=O)C(=O)N(C)[C@@H](CCCNC(=N)N)C(=O)N[C@@H](Cc3ccc(O)cc3)C(N)=O)[C@@H](C)O)C(C)C)c2)CC1" .
a: > 30 µM

q: Recall and state the measured EC50 for "CC[C@H](C)[C@H](NC(C)=O)C(=O)N[C@@H](CCCCN)C(=O)N1CCN(c2ccc3ccn(CC(=O)N[C@@H](CCCNC(=N)N)C(=O)N[C@@H](Cc4c[nH]cn4)C(=O)N[C@@H](Cc4ccc(O)cc4)C(=O)N[C@@H](CC(C)C)C(=O)N[C@@H](CC(N)=O)C(=O)N[C@@H](Cc4c[nH]c5ccccc45)C(=O)N[C@H](C(=O)N[C@H](C(=O)N[C@@H](CCCNC(=N)N)C(=O)N[C@@H](CCC(N)=O)C(=O)N(C)[C@@H](CCCNC(=N)N)C(=O)N[C@@H](Cc4ccc(O)cc4)C(N)=O)[C@@H](C)O)C(C)C)c(=O)c3c2)CC1" .
a: > 5 µM

q: Recall and state the measured EC50 for CC[C@H](C)[C@H](NC(C)=O)C(=O)N[C@@H](CCCCN)C(=O)N1CC2CC1CC2c1ccc2ncn(CC(=O)N[C@@H](CCCNC(=N)N)C(=O)N[C@@H](Cc3c[nH]cn3)C(=O)N[C@@H](Cc3ccc(O)cc3)C(=O)N[C@@H](CC(C)C)C(=O)N[C@@H](CC(N)=O)C(=O)N[C@@H](Cc3c[nH]c4ccccc34)C(=O)N[C@H](C(=O)N[C@H](C(=O)N[C@@H](CCCNC(=N)N)C(=O)N[C@@H](CCC(N)=O)C(=O)N(C)[C@@H](CCCNC(=N)N)C(=O)N[C@@H](Cc3ccc(O)cc3)C(N)=O)[C@@H](C)O)C(C)C)c(=O)c2c1 (stereo partly shown) .
a: > 5 µM
